Cited source: patent US20220064272A1

Listed below: EC50 values for each entry.
- TARGET UNDER TEST: T1, TauC3 (C-terminally truncated tau fragment ending at aspartate 421 of htau40) (human, UniProt P10636 1-738)
- T1 construct: Generated and purified by Genscript; also called Human TauC3; recombinant TauC3 protein
- T1 sequence (P10636 other isoform, or with tags, fused parts or gaps): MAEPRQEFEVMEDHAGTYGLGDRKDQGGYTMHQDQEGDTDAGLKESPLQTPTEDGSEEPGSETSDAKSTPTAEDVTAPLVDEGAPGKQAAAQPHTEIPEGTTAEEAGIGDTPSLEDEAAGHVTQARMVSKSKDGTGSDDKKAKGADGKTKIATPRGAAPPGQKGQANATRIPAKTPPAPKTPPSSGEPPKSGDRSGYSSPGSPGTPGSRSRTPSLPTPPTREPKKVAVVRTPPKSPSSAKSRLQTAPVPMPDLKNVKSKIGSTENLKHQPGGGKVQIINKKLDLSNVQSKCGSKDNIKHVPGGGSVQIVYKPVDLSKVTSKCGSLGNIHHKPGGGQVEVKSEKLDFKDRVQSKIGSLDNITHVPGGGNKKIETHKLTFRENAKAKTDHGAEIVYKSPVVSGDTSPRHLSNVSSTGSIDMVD
- MEASUREMENT NOTES: binding ELISA on coated TauC3, OD650; right table (HM variants)

BINDER	EC50 [nM]
Tau01 HMKJ (antibody, V domains shown, human IgG4 kappa (HuG4K)) VH: LVQLVESGGGLVQPGGSLKLSCAASGFTFNTYAMNWVRQASGKGLEWVARIRSKSNNYATYYAASVKGRFTISRDDSKSMAYLQMDSLKTEDTAVYYCVGGGDFWGQGTLVTVSS VL: DIQMTQSPSSLSASVGDRVTITCRASQEISVYLGWYQQKPGKAPKRLIYGAFSLQSGVPSRFSGSRSGTEFTLTISSLQPEDFATYYCLQYVRYPWTFGGGTKVEIK	0.433
Tau01 HMKN HuG4k (antibody, V domains shown, human IgG4 kappa (HuG4K)) VH: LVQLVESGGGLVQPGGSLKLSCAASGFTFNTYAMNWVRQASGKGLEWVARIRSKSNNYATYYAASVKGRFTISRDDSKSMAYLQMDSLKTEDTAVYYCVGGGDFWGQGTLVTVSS VL: DIQMTQSPSSLSASVGDRVTITCRASQEISVYLGWYQQKPGKAPKRLIYGAFTLQSGVPSRFSGSRSGTEYTLTISSLQPEDFATYYCLQYVRYPWTFGGGTKVEIK	0.624
Tau01 HCKB HuG4K (antibody, V domains shown, human IgG4 kappa (HuG4K)) VH: LVQLVESGGGLVQPGGSLKLSCAASGFTFNTYAMNWVRQASGKGLEWVGRIRSKSNNYATYYAASVKGRFTISRDDSKSMAYLQMDSLKTEDTAVYYCVGGGDFWGQGTLVTVSS VL: DIQMTQSPSSLSASVGDRVTITCRASQEISVYLSWFQQKPGKAIKRLIYGAFTLQSGVPSRFSGSRSGSEYTLTISSLQPEDFATYYCLQYVRYPWTFGGGTKVEIK	0.73
